Data credit: PubChem BioAssay (NCI)

- System: HOP-92 NSCLC
- MEASUREMENT_PROTOCOL: NCI-60 one-dose screen, 48 h (100 = growth as untreated, 0 = no growth, -100 = all killed)
- CONDITION_SET: 10 µM unless noted
This is part of a sample that, as a whole, favours compounds with a hit. Of some 83,000 tested, about 20% had one in any assay.
MEASURED_PARAMETER: growth (%)
Please give a number only; it is taken to be in %.

Q: Fill in reported growth for this entry: `C=CCSc1nnc(-c2ccc(C(C)(C)C)cc2)n1-c1cccc(C(F)(F)F)c1`
Ans: 28.9

Q: Give a short answer stating reported growth for `Cc1cc(Nc2nc(N3CCNCC3)nc3ccccc23)n[nH]1` .
Ans: 80.2

Q: Report growth, nothing else, for this compound: C=CC[N+]1(CCO)CCN=C1CCCCCCCCCCCCC (configuration not stated)
Ans: -18.3

Q: Quote growth reported for `Nc1cccc(-c2nc3sccn3c2-c2ccnc(NCCCNS(=O)(=O)c3ccc(C(F)(F)F)cc3)n2)c1` please.
Ans: 71.4
